B1: library; numbered along this chain (parent)
chain: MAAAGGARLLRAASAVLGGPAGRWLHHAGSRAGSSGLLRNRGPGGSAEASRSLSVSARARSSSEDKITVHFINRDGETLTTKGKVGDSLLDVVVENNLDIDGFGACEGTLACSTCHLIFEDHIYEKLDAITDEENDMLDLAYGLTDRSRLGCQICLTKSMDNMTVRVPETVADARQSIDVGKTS

# Variants of: B1
# experiment summary: scaled log2 fold change in cell abundance, elesclomol vs control (0 = silent mean, 1 = nonsense mean) (scaled log2 ratio); higher = higher viability under elesclomol (loss of FDX1 cuproptosis function);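 note: variant abundance is its share of total variant reads in each endpoint sample, from next-generation sequencing of the integrated ORF PCR-amplified out of genomic DNA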
# run parameters: with ABC1 FDX1 KO; elesclomol 5 nM; glucose 10 mM; 14 days
measurement type: scaled log2 fold change
Respond numerically, and do not add a unit to the figure.

- R60V: 0.116

Query: Returns the measured scaled log2 fold change for the input variant. Input: `R60F`
Result: 0.0888

Query: Same question, `E125A` this time
Result: -0.503

Query: Same question, `L127R` this time
Result: 0.785

Query: Same question, `A111I` this time
Result: -0.421

Query: Same question, `A172G` this time
Result: -0.0465

Query: Same question, `R39V` this time
Result: 0.374

Query: Same question, `L38F` this time
Result: 0.294

Query: Same question, `K84M` this time
Result: 0.138

Query: Same question, `D121R` this time
Result: -0.0191

Query: Same question, `D65P` this time
Result: -0.000175

Query: Same question, `D173F` this time
Result: 0.306

Query: Same question, `G29K` this time
Result: -0.417

Query: Same question, `G19M` this time
Result: -0.0059

Query: Same question, `C115A` this time
Result: 1.07

Query: Same question, `L89E` this time
Result: 0.919

Query: Same question, `S56C` this time
Result: -0.222
